- stated.conditions: PBS
observable: Em (nm)
Write down the numeric answer in nm and omit the unit.

Consider the following illustrative entries.
Cc1ccccc1C1=c2cc3c(cc2[Si](c2ccccc2)(c2ccccc2)c2cc4c(cc21)CCCN4C)=[N+](C)CCC3 :: 710
CCOC(=O)CSCCC[Si@]1(C)c2cc(N(C)C)ccc2[C@]2(OC(=O)c3ccccc32)c2ccc(N(C)C)cc21 :: 665
CC[Si]1(CC)C2=CC(=[N+](C)C)C=CC2=C(c2ccccc2C)c2ccc(N(C)C)cc21 :: 664
Cc1ccccc1C1=C2C=CC(=[N+]3CCC3)C=C2[Si](c2ccccc2)(c2ccccc2)c2cc(N3CCC3)ccc21 :: 680

Reported Em (nm), compound CN(C)c1ccc2c(c1)[Si@](C)(CCCCl)c1cc(N(C)C)ccc1[C@]21OC(=O)c2ccccc21 : ____
665

Em (nm) for C=C[Si]1(c2ccccc2)C2=CC(=[N+](C)C)C=CC2=C(c2ccccc2C)c2ccc(N(C)C)cc21 (stereo not shown) ?
676

For the compound CN(C)c1ccc2c(c1)[Si@](C)(CCCCl)c1cc(N(C)C)ccc1[C@@]21OC(=O)c2ccccc21 , what Em (nm) is on record?
665

====

- stated.conditions: PBS, pH 7.4
observable: ϕ (quantum yield)
Enter a number only.

// below: answered molecules
Cc1ccccc1C1=c2cc3c(cc2[Si](C)(CCCCl)c2cc4c(cc21)CCN4C)=[N+](C)CC3 (centres unmarked) :: 0.17
CN(C)c1ccc2c(c1)[Si@](C)(CCCSCC(=O)O)c1cc(N(C)C)ccc1[C@]21OC(=O)c2ccccc21 :: 0.45
CC[Si]1(CC)C2=CC(=[N+](C)C)C=CC2=C(c2ccccc2C)c2ccc(N(C)C)cc21 :: 0.36
CN(C)c1ccc2c(c1)[Si@](C)(CCCI)c1cc(N(C)C)ccc1[C@@]21OC(=O)c2ccccc21 :: 0.45
Cc1ccccc1C1=C2C=CC(=[N+](C)C)C=C2[Si](C)(C)c2cc(N(C)C)ccc21 [Compound 001, reference compound] :: 0.34
Cc1ccccc1C1=C2C=CC(=[N+](C)C)C=C2[Si](C)(CCC(F)(F)F)c2cc(N(C)C)ccc21 (centres unmarked) :: 0.35
Cc1ccccc1C1=C2C=CC(=[N+]3CCC3)C=C2[Si](C)(C)c2cc(N3CCC3)ccc21 [Compound 024, reference compound] :: 0.47
Cc1ccccc1C1=C2C=CC(=[N+](C)C)C=C2[Si]2(CCCC2)c2cc(N(C)C)ccc21 :: 0.35

Now for another entry.
Which value of ϕ (quantum yield) has been reported for CN(C)c1ccc2c(c1)[Si](C)(C)c1cc(N(C)C)ccc1C21OC(=O)c2ccccc21 [Compound 032, reference compound] in the records?
0.38

====

- stated.conditions: PBS
Listing of recorded Em (nm) by entry.
The answer is to be given in nm; state only the numeric part.

For orientation, consider the following solved cases.
CN(C)c1ccc2c(c1)[Si@](C)(CCCI)c1cc(N(C)C)ccc1[C@]21OC(=O)c2ccccc21 [Compound 047] :: 665
Cc1ccccc1C1=C2C=CC(=[N+](C)C)C=C2[Si](C)(CCC(F)(F)F)c2cc(N(C)C)ccc21 (stereo not shown) [Compound 010] :: 666
C=C[Si]1(C=C)C2=CC(=[N+](C)C)C=CC2=C(c2ccccc2C)c2ccc(N(C)C)cc21 [Compound 006] :: 672
Cc1ccccc1C1=c2cc3c(cc2[Si](c2ccccc2)(c2ccccc2)c2cc4c(cc21)CCN4C)=[N+](C)CC3 [Compound 022] :: 737
CN(C)c1ccc2c(c1)[Si@](C)(CCCSCC(=O)O)c1cc(N(C)C)ccc1[C@]21OC(=O)c2ccccc21 [Compound 063] :: 665
CCCCCCCC[Si]1(CCCCCCCC)C2=CC(=[N+](C)C)C=CC2=C(c2ccccc2C)c2ccc(N(C)C)cc21 [Compound 011] :: 666

Name the recorded Em (nm) for Cc1ccccc1C1=c2cc3c(cc2[Si](C)(CCCCl)c2cc4c(cc21)CCCN4C)=[N+](C)CCC3 (stereo not shown) [Compound 019] .
694

====

- stated.conditions: EtOH/0.1% TFA
Quick list: extinction coefficient (maximum) in EtOH/0.1% TFA per entry.

Reference set, count: 3
O=C1OC2(c3ccccc31)c1ccc(N3CCC3)cc1[Si](c1ccccc1)(c1ccccc1)c1cc(N3CCC3)ccc12 :: 80,000 M−1 cm−1
CN(C)c1ccc2c(c1)[Si@](C)(CCCCl)c1cc(N(C)C)ccc1[C@@]21OC(=O)c2ccccc21 :: ~200,000 M−1 cm−1
C=C[Si]1(C=C)c2cc(N3CCC3)ccc2C2(OC(=O)c3ccccc32)c2ccc(N3CCC3)cc21 :: 80,000 M−1 cm−1

Name the recorded extinction coefficient (maximum) in EtOH/0.1% TFA for CN(C)c1ccc2c(c1)[Si@](C)(CCCCl)c1cc(N(C)C)ccc1[C@]21OC(=O)c2ccccc21 .
~200,000 M−1 cm−1

====

- stated.conditions: PBS
observable: Brightness (ϕ × ε)

Cc1ccccc1C1=C2C=CC(=[N+](C)C)C=C2[Si](C)(C)c2cc(N(C)C)ccc21 [Compound 001, reference compound] :: 43,102
Cc1ccccc1C1=c2cc3c(cc2[Si](c2ccccc2)(c2ccccc2)c2cc4c(cc21)CCCN4C)=[N+](C)CCC3 :: 41,524
Cc1ccccc1C1=C2C=CC(=[N+]3CCC3)C=C2[Si](C)(CCCCl)c2cc(N3CCC3)ccc21 (stereo not shown) :: 81,683

# get_value(readout='Brightness (ϕ × ε)', item= Cc1ccccc1C1=C2C=CC(=[N+](C)C)C=C2[Si]2(CCCCC2)c2cc(N(C)C)ccc21 )
56,610

Can you share its Brightness (ϕ × ε)? I mean this compound: Cc1ccccc1C1=C2C=CC(=[N+](C)C)C=C2[Si]2(CCCC2)c2cc(N(C)C)ccc21
54,826

Would you kindly share the measured Brightness (ϕ × ε) for COc1cccc(OC)c1C1=C2C=CC(=[N+]3CCC3)C=C2[Si](C)(CCCCl)c2cc(N3CCC3)ccc21 (stereo not shown) ?
86,400

Name the reported Brightness (ϕ × ε) value associated with the compound C=C[Si]1(C=C)C2=CC(=[N+](C)C)C=CC2=C(c2ccccc2C)c2ccc(N(C)C)cc21
56,671

====

- stated.conditions: PBS, pH 7.4
observable: ϕ (quantum yield)
Please give only the number in your answer, with no unit.

Examples from the recorded data:
Cc1ccccc1C1=C2C=CC(=[N+]3CCC3)C=C2[Si](C)(CCCCl)c2cc(N3CCC3)ccc21 (stereo not shown) [Compound 027] :: 0.49
Cc1ccccc1C1=c2cc3c(cc2[Si](c2ccccc2)(c2ccccc2)c2cc4c(cc21)CCCN4C)=[N+](C)CCC3 [Compound 018] :: 0.28
CCCCCCCC[Si]1(CCCCCCCC)C2=CC(=[N+](C)C)C=CC2=C(c2ccccc2C)c2ccc(N(C)C)cc21 [Compound 011] :: 0.18
Cc1ccccc1C1=C2C=CC(=[N+](C)C)C=C2[Si](C)(c2ccccc2)c2cc(N(C)C)ccc21 (stereo not shown) [Compound 004] :: 0.35
C=C[Si]1(C=C)C2=CC(=[N+]3CCC3)C=CC2=C(c2ccccc2C)c2ccc(N3CCC3)cc21 [Compound 026] :: 0.44

Would you mind telling me what ϕ (quantum yield) value was observed for C=C[Si]1(C)C2=CC(=[N+](C)C)C=CC2=C(c2ccccc2C)c2ccc(N(C)C)cc21 (stereo not shown) [Compound 003] ?
0.35

Reported ϕ (quantum yield), compound C[Si]1(C)c2cc(N3CCC3)ccc2C2(OC(=O)c3ccccc32)c2ccc(N3CCC3)cc21 [Compound 031, reference compound] : ____
0.45

====

- stated.conditions: PBS
observable: Em (nm)
Express your answer in nm, writing the number without its unit.

Cc1ccccc1C1=C2C=CC(=[N+](C)C)C=C2[Si](c2ccccc2)(c2ccccc2)c2cc(N(C)C)ccc21 :: 677
Cc1ccccc1C1=C2C=CC(=[N+](C)C)C=C2[Si](C)(c2cccc(N(C)C)c2)c2cc(N(C)C)ccc21 (centres unmarked) :: 668
Cc1ccccc1C1=C2C=CC(=[N+]3CCC3)C=C2[Si](C)(C)c2cc(N3CCC3)ccc21 [Compound 024, reference compound] :: 663
Cc1ccccc1C1=C2C=CC(=[N+](C)C)C=C2[Si](C)(CCCCl)c2cc(N(C)C)ccc21 (centres unmarked) :: 665

Data request, read-out Em (nm), for C[Si]1(C)c2cc(N3CCC3)ccc2C2(OC(=O)c3ccccc32)c2ccc(N3CCC3)cc21 [Compound 031, reference compound]
664

====

- stated.conditions: spirolactone dyes; table title says PBS, text (b560-b564) says maximal ε when ring-opened in EtOH/0.1% TFA
observable: ε (M^−1 cm^−1)

O=C1OC2(c3ccccc31)c1ccc(N3CCC3)cc1[Si](c1ccccc1)(c1ccccc1)c1cc(N3CCC3)ccc12 :: 80,000 M^−1 cm^−1
CN(C)c1ccc2c(c1)[Si@](C)(CCCCl)c1cc(N(C)C)ccc1[C@]21OC(=O)c2ccccc21 :: 200,000 M^−1 cm^−1
CN(C)c1ccc2c(c1)[Si@](C)(CCCCl)c1cc(N(C)C)ccc1[C@@]21OC(=O)c2ccccc21 :: 200,000 M^−1 cm^−1

So what does the record say about ε (M^−1 cm^−1) for CCOC(=O)CSCCC[Si@]1(C)c2cc(N(C)C)ccc2[C@]2(OC(=O)c3ccccc32)c2ccc(N(C)C)cc21 ?
145,800 M^−1 cm^−1

Look up ε (M^−1 cm^−1): C[Si@]1(CCCCl)c2cc(N3CCC3)ccc2[C@]2(OC(=O)c3ccccc32)c2ccc(N3CCC3)cc21
213,200 M^−1 cm^−1

Data request, read-out ε (M^−1 cm^−1), for CN(C)c1ccc2c(c1)[Si@](C)(CCCI)c1cc(N(C)C)ccc1[C@@]21OC(=O)c2ccccc21
144,000 M^−1 cm^−1

Any idea what ε (M^−1 cm^−1) was measured for CN(C)c1ccc2c(c1)[Si@](C)(CCCI)c1cc(N(C)C)ccc1[C@]21OC(=O)c2ccccc21 ?
115,000 M^−1 cm^−1

Source listed as patent US20250003877A1.
